- Test system: GM3 expression on the cell surface, B16 mouse melanoma cells
- RUN_DESCRIPTION: cell based phenotypic assay, cell surface GM3 by antibody mediated immunofluorescence, B16 (GM3 B16 IC50)
- MEASUREMENT_SETUP: B16 mouse melanoma cells; 50% inhibition of GM3 expression on the cell surface; read-out: GM3 B16 IC50
ENDPOINT: IC50 (µM)

> print(dat)
                                    molecule  unit.tag  value.operator  recorded.number
 1  COCCOCc1ccc(-c2nc(N3CCC(F)(C(=O)NC4(C)CCN5CCC4CC5)CC3)ncc2F)cc1 (single isomer, unassigned) [Example 79]        µM               =            0.109
 2  O=C(NC1CCN2CCC1CC2)N1CCN(c2ccccc2)CC1 (centres unmarked) [Example 8]        µM               >               10
 3  CCC1(NC(=O)NC2(c3ccc(-c4ccc(COCCOC)cc4)cc3)CC2)CN2CCC1CC2 (single isomer, unassigned) [Example 208]        µM               =            0.988
 4  CC1(NC(=O)C2CCN(c3nccc(-c4ccc(F)cc4)n3)CC2)CCN2CCC1CC2 (single isomer, unassigned) [Example 43]        µM               =          0.00654
 5  CN(C)C(=O)c1ccc(Oc2ccc(C(C)(C)NC(=O)NC3(C)CCN4CCC3CC4)cc2)cc1 (centres unmarked) [Example 290]        µM               =             2.58
 6  C[C@H]1CN(C(=O)NC2(C)CCN3CCC2CC3)CCN1c1nccc(-c2ccccc2)n1 (single isomer, unassigned) [Example 139]        µM               =            0.067
 7  COCCOc1ccc(-c2ccc(C(C)(C)NC(=O)OC3CCN4CCC3CC4)nc2)cc1 (single isomer, unassigned) [Example 349]        µM               =            0.233
 8  CC1(NC(=O)C2CCN(c3nccc(-c4ccc(F)cc4)n3)CC2)CCN2CCC1CC2 (single isomer, unassigned) [Example 42]        µM               =            0.918
 9  COCCOc1ccc(-c2ccc(C(C)(C)NC(=O)OC3CCN4CCC3CC4)nc2)cc1 (single isomer, unassigned) [Example 348]        µM               =           0.0872
10  CC1(NC(=O)C2CCN(c3cncc(-c4ccc(F)cc4)n3)CC2)CCN2CCC1CC2 (single isomer, unassigned) [Example 48]        µM               =           0.0477
11  CN(C)C(=O)c1ccc(Oc2ccc(C(C)(C)NC(=O)NC3(C)CCN4CCC3CC4)cc2)cc1 (centres unmarked) [Example 285]        µM               =            0.725

----------
- TESTED_TARGET: glucosylceramide synthase (Homo sapiens)
- Construct: Microsomes were isolated from A375 human melanoma cells; endogenous in cells
- Sequence (Q16739 whole entry): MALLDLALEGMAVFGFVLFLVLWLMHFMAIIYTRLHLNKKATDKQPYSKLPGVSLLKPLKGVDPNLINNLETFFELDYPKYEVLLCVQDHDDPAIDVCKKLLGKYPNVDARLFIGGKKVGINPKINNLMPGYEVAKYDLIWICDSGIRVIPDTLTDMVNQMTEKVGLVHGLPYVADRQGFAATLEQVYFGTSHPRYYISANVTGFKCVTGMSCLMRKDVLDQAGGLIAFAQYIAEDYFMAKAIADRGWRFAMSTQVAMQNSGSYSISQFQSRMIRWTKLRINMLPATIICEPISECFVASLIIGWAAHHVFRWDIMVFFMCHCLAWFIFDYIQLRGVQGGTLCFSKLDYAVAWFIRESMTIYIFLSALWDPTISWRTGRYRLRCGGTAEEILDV
- RUN_DESCRIPTION: microsomal assay measuring conversion of ceramide to glucosylceramide by HPLC (GCS IC50)
- MEASUREMENT_SETUP: concentration causing 50% inhibition of glucosylceramide synthase activity
pIC50: −log10 of the molar value.
ENDPOINT: pIC50

> print(dat)
                                   compound  recorded.number
1  CC(C)(NC(=O)NC1(C)CN2CCC1CC2)c1ccc(-c2ccc(OCCn3ccnn3)cc2)cc1 (centres unmarked) [Example 183]             7.50
2  COCCCOc1ccc(-c2nc(C(C)(C)NC(=O)OC3CN4CCC3CC4)cs2)cc1 (centres unmarked) [Example 340]             6.77
3  CCC1(NC(=O)NC(C)(C)C#Cc2ccc(S(=O)(=O)CCC(C)(C)C)cc2)CN2CCC1CC2 (centres unmarked) [Example 338]             8.35
4  CC(C)(NC(=O)NC1(C)CCN2CCC1CC2)c1ccc(-c2ccc(C(=O)N3CCOCC3)cc2)cc1 (centres unmarked) [Example 268]             6.78
5  CC1(NC(=O)C2(F)CCN(c3nccc(OC4CCOCC4)n3)CC2)CCN2CCC1CC2 (centres unmarked) [Example 123]             7.37
6  O=C(OC1CN2CCC1CC2)N1CCN(c2ccccc2)CC1 (centres unmarked) [Example 12]             4.91
7  CC(C)(NC(=O)NC1(C)CN2CCC1CC2)c1ccc(-c2ccc(OCCn3cccn3)cc2)cc1 (centres unmarked) [Example 180]             8.28
8  COCCOCc1ccc(-c2nc(N3CCC(C(=O)NC4(C)CCN5CCC4CC5)CC3)ncc2F)cc1 (centres unmarked) [Example 58]             8.47
